Experiment: [11C]GSK1034702 PET brain distribution and kinetics in anaesthetised baboons
Assay type: in vivo, Papio anubis
Conditions: female, baboon (Papio anubis), cerebellum, intravenous, Cerebellum; Subject A Exam 1; baboon; read-out: Regional V T
experimentalReadout: Kp

- [11CH3]c1cc(F)c2[nH]c(=O)n(C3CCN(C4CCOCC4)CC3)c2c1 [[^11C]GSK1034702]: 4.07

====

Assay: plasma protein binding by equilibrium dialysis, monkey
Format: in vitro ADME
Settings: equilibrium dialysis 5 h, read-out: f P (plasma-free fraction)
experimentalReadout: fraction unbound at 5 h, 1 μg/mL

- Cc1cc(F)c2[nH]c(=O)n(C3CCN(C4CCOCC4)CC3)c2c1: 0.58

====

Assay: [11C]GSK1034702 PET brain distribution and kinetics in healthy male humans
Type: in vivo
Conditions: human, brain cortex, intravenous, Cortex, Subject 2 Scan 1 (baseline), read-out: V T
experimentalReadout: Kp

* [11CH3]c1cc(F)c2[nH]c(=O)n(C3CCN(C4CCOCC4)CC3)c2c1 [[^11C]GSK1034702] | 5

====

Assay: [11C]GSK1034702 PET brain distribution and kinetics in healthy male humans
Type: in vivo
Conditions: human, white matter, po, White matter, Subject 4 Scan 2 (post dose, 5 mg oral), read-out: V T
experimentalReadout: Kp

- [11CH3]c1cc(F)c2[nH]c(=O)n(C3CCN(C4CCOCC4)CC3)c2c1 [[^11C]GSK1034702]: 4.49

====

Test: plasma concentration after single 5-mg oral dose in humans
Format: in vivo
Conditions: human, Subject 2, 3.2 hours post dose, read-out: GSK1034702 plasma concentration at start of post-dose PET scan
experimentalReadout: concentration at 3.2 h (ng/mL)

• Cc1cc(F)c2[nH]c(=O)n(C3CCN(C4CCOCC4)CC3)c2c1 = 7.9

====

Assay: brain tissue binding by equilibrium dialysis, dog
Format: in vitro ADME
Conditions: brain tissue, equilibrium dialysis 5 h, read-out: f ND (brain-free fraction)
Experimental: The in vitro brain and plasma protein binding of GSK1034702 across a range of species was determined using equilibrium dialysis as described previously.
experimentalReadout: fraction unbound at 5 h, 1 μg/mL

• Cc1cc(F)c2[nH]c(=O)n(C3CCN(C4CCOCC4)CC3)c2c1 [GSK1034702] = 0.18

====

Assay: plasma protein binding by equilibrium dialysis, dog
Assay type: in vitro ADME
Settings: equilibrium dialysis 5 h, read-out: f P (plasma-free fraction)
experimentalReadout: fraction unbound at 5 h, 1 μg/mL

• Cc1cc(F)c2[nH]c(=O)n(C3CCN(C4CCOCC4)CC3)c2c1 = 0.56

====

Test: plasma protein binding by equilibrium dialysis, rat
Assay type: in vitro ADME
Settings: Rat (LH, Lister hooded), equilibrium dialysis 5 h, mean ± SD, n = 6, read-out: Plasma protein binding (converted)
Procedure: The in vitro brain and plasma protein binding of GSK1034702 across a range of species was determined using equilibrium dialysis as described previously.
experimentalReadout: fraction unbound at 5 h, 1 μg/mL

* Cc1cc(F)c2[nH]c(=O)n(C3CCN(C4CCOCC4)CC3)c2c1 [GSK1034702] | 0.545

====

Test: [11C]GSK1034702 PET brain distribution and kinetics in healthy male humans
Type: in vivo
Settings: human, cerebellum, intravenous, Cerebellum, Subject 1 Scan 1 (baseline), read-out: V T
experimentalReadout: Kp

• [11CH3]c1cc(F)c2[nH]c(=O)n(C3CCN(C4CCOCC4)CC3)c2c1 [[^11C]GSK1034702] = 5.33
